Biological target: human S1P3 receptor (Homo sapiens (Human), UniProt Q99500)
Sequence (Q99500 whole entry): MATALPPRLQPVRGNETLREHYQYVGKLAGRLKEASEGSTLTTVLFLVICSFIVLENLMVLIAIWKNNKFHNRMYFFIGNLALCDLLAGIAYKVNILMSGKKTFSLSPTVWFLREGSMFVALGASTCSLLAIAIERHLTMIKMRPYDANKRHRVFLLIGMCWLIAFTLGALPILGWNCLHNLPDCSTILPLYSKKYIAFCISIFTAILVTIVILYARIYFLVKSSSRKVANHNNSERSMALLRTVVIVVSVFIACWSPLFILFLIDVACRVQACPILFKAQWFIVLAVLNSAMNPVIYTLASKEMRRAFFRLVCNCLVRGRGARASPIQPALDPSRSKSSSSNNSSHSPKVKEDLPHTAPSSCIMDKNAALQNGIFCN
Assay: Activation or block of activation of human S1P3 receptor, Ca+2 FLIPR assay; further: test concentration or dose not given here
Format: cell-based
Conditions: T24 cells stably expressing the human S1P3 receptor; value in brackets

{"molecule": "COC(=O)c1ccc2c(C(=O)NCc3ccc(F)c(F)c3)c(C(C)C)n(Cc3ccccc3)c2c1", "unit.label": "%", "S1P3 (% inh)": 100}
{"molecule": "CC(C)c1c(C(=O)NCc2ccc(F)c(F)c2)c2ccc(OC3CCCO3)cc2n1Cc1ccccn1 (stereo not shown) [drawing 169]", "unit.label": "%", "S1P3 (% inh)": 100}
{"molecule": "CC(C)c1c(C(=O)NCc2ccc(F)c(F)c2)c2ccc(NC3CCC3)cc2n1Cc1ccccn1", "unit.label": "%", "S1P3 (% inh)": 100}
